Origin of measurements: PubChem BioAssay (NCI)

Tested on: KM12 colon
TEST DETAILS: NCI tumour cell line growth inhibition, 48 h
REPORTED PROPERTY: TGI

>>> recorded_result("C=CCC1(O)c2cccc(NCCO)c2C(=O)c2c(NCCO)cccc21")
"> 100 µM"
>>> recorded_result("O=C1/C(=C/c2ccccc2[N+](=O)[O-])N=C(c2ccccc2)N1C1Nc2cc3c(cc2S1)NC(N1C(=O)/C(=C/c2ccccc2[N+](=O)[O-])N=C1c1ccccc1)S3 (stereo not given)")
"> 100 µM"
>>> recorded_result("O=C1NC2(CCCCC2)C2CCCCCC12 (stereo not given)")
"> 100 µM"
>>> recorded_result("OC1(c2cc3ccccc3s2)CCCCC1")
"> 100 µM"
>>> recorded_result("CN(C)CCSC(=Nc1ccccc1)N1CCCCC1")
"31 µM"
